System: adjuvant-induced polyarthritis syndrome
protocol-text: adjuvant-induced polyarthritis syndrome in rats
Format: in vivo, rat (male Charles River-Wistar Lewis)
condition-notes: rat; non-injected paw; screening dose of 50 mg/kg, p.o.; daily for 21 days
Recorded percent inhibition of paw volume, Non-Injected Paw by entry
The reply should be a number in %, with the unit left off.

{"molecule": "CC(=O)Oc1ccccc1C(=O)O [Aspirin, reference compound]", "display-unit": "%", "recorded-result": -33}
{"molecule": "O=C(Nc1ccc(Cl)cn1)c1nc(-c2ccccc2)c2ccccc2c1O", "display-unit": "%", "recorded-result": -38}
{"molecule": "Cc1csc(NC(=O)c2cn(-c3ccccc3)c3ccccc3c2=O)n1", "display-unit": "%", "recorded-result": -26}
{"molecule": "O=C(Nc1cnccn1)c1cn(-c2ccccc2)c2ccccc2c1=O", "display-unit": "%", "recorded-result": -23}

// field: percent inhibition of paw volume, Non-Injected Paw; key: `O=C(Nc1ccc(Br)cn1)C1=C(O)c2ccccc2N(c2ccccc2)C1` ; value = -22

Briefly, percent inhibition of paw volume, Non-Injected Paw measured for `O=C(Nc1ccccc1)C1=C(O)c2ccccc2N(c2ccccc2)C1` : -26

Values were extracted from patent US4786644A.
